# tested system: Stp1 (UniProt B3LFK1)
# Sequence: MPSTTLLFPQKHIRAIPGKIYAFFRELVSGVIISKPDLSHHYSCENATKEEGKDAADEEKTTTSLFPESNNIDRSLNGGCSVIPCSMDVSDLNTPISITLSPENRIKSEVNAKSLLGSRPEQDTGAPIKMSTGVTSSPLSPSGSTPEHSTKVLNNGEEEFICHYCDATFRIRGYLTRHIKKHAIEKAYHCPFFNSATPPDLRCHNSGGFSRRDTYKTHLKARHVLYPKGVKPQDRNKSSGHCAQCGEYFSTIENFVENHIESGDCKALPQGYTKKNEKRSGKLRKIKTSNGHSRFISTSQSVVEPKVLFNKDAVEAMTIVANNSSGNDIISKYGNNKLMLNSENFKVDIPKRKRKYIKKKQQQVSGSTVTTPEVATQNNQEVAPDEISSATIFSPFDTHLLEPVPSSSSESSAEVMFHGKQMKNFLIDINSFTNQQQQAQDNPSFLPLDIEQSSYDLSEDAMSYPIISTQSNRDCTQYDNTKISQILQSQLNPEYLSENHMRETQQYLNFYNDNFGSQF
# protocol: PBM E-score (8-mer binding enrichment) (E-score (-0.5 to 0.5)); higher = stronger / more preferred TF binding
# run conditions: protein concentration: 200 nM; construct: GST-full length
In all, about 33,000 sequences were measured (“E-score (-0.5 to 0.5)”: median about -0.016, highest 2% from about 0.32 on). The sample holds the highest values, similar sequences and a random draw of the others, so the mix is not that of the screen.
Given measured PBM E-score, output Fulfilled if it is greater than or equal to 0.09 and Not fulfilled if not.

ATGGCACG Fulfilled
CAAGGCGA Fulfilled
CAACCAGA Not fulfilled
CGGCGAAG Fulfilled
GAAGGCGC Fulfilled
GATCCTAA Not fulfilled

Kindly consider the entry below.
Problem: Determine whether this sequence has PBM E-score no lower than 0.09: AGGGCACA
Solution: Fulfilled

====

# tested system: Stp1 (UniProt B3LFK1)
# Sequence: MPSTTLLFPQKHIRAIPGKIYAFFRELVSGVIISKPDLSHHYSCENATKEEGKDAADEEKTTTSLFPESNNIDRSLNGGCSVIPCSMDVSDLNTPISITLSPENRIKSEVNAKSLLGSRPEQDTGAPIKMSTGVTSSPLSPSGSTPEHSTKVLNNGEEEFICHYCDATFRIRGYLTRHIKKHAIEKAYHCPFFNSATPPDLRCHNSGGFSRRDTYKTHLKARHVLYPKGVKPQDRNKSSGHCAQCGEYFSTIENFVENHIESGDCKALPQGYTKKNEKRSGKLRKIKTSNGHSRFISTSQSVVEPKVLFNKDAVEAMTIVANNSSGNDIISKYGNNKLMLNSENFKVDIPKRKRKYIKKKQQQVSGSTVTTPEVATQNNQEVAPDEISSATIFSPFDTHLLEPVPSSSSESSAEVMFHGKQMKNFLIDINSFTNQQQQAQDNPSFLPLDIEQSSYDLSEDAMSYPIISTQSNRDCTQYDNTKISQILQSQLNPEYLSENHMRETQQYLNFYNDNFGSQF
# protocol: PBM E-score (8-mer binding enrichment) (E-score (-0.5 to 0.5)); higher = stronger / more preferred TF binding
# run conditions: protein concentration: 200 nM; construct: GST-full length
Whole data set: some 33,000 sequences, median “E-score (-0.5 to 0.5)” near -0.016, cut for the highest 2% near 0.32. Many of the other results were omitted from the sample, so the highest values are more common in it than they were.
Could you label it MET if measured PBM E-score is 0.05 or higher, and NOT MET otherwise?

CAAAACGC MET
ACTGCGGG NOT MET
CTCGGCAG MET
AAGACCGA NOT MET
GCCCTATA MET

Problem: Is it the case that CAACCTTG has PBM E-score reaching or exceeding 0.05?
Solution: MET

Problem: Check this sequence for PBM E-score at or above 0.05: AAAAAGGC
Solution: MET

Data provenance: the supplement of paper PMC3334620
